B1: CPEB3 Ribozyme (parent)
chain: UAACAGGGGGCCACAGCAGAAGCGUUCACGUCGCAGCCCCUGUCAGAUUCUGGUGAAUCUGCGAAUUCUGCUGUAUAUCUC

Variants of: B1
ASSAY_EXPLANATION: self-cleavage, relative activity (ratio to wild type); higher = more cleavage; in vitro, sequencing
Classification field. Basis: self-cleavage. Definitions: lower segment = under 0.3, middle segment = from 0.3 up to 0.7, upper segment = 0.7 and over

Tag the class for UAACAGGAGGCCACAGCAGAAGCGAUCACGUCGCAGCCCCUGUCAGAUUCUGGUGAAUCUGCGAAUUCUGCUGUAUAUCUC [G8A U25A]
lower segment

Tag the class for UAACAGAGGGCUACAGCAGAAGCGUUCACGUCGCAGCCCCUGUCAGAUUCUGGUGAAUCUGCGAAUUCUGCUGUAUAUCUC [G7A C12U]
lower segment

Tag the class for UAACAGGGGGCCACAGCAGAAGCGUUCACGUCGCAGCCCCUGUCAGAUUCUAGUGAAUCCGCGAAUUCUGCUGUAUAUCUC [G52A U60C]
upper segment

Tag the class for UAACAGGGGGCCGCAGCAGAAGCGUUCACGUCGCAGCCCCUGUCAGAUUCUGGUGAAUCUGCGAAUUCUGCUGUAUAUCGC [A13G U80G]
upper segment

Tag the class for UAACAGCGGGCCACAGCAGAAGCGUUCACGUCGCAGUCCCUGUCAGAUUCUGGUGAAUCUGCGAAUUCUGCUGUAUAUCUC [G7C C37U]
lower segment

Tag the class for UAACAGGGGGCCACAGCAGAAGCGUUCACAUCGCAGCCCCGGUCAGAUUCUGGUGAAUCUGCGAAUUCUGCUGUAUAUCUC [G30A U41G]
middle segment

Tag the class for UAAUAGGGGGCCACUGCAGAAGCGUUCACGUCGCAGCCCCUGUCAGAUUCUGGUGAAUCUGCGAAUUCUGCUGUAUAUCUC [C4U A15U]
upper segment

Tag the class for UAACAGGGGGCCACAGCAGAAGCGUUCACGUCGCGGCCCCUGUCCGAUUCUGGUGAAUCUGCGAAUUCUGCUGUAUAUCUC [A35G A45C]
upper segment

Tag the class for UAACAGGGGGCCACAGCAGAAGCGUUCAAGUCGCAGCCCCUGUCAGAUUCUGGUGAAUCUGCGAAUUCGGCUGUAUAUCUC [C29A U69G]
lower segment

Tag the class for UAACAGGGGGCCACAGCUGAAGCGUUCACGUUGCAGCCCCUGUCAGAUUCUGGUGAAUCUGCGAAUUCUGCUGUAUAUCUC [A18U C32U]
lower segment
